Molecular target: Carbonic anhydrase 5A, mitochondrial (Homo sapiens, UniProt P35218)
Sequence (P35218 whole entry): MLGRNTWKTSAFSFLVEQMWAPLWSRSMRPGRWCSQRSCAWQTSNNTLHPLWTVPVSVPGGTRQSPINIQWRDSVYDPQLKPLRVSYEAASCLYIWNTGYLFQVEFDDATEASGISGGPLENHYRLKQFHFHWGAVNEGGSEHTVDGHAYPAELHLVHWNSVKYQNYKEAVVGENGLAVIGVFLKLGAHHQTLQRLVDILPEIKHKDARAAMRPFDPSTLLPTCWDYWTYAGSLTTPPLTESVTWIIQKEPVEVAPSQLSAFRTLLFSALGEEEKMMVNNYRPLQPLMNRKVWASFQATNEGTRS
Experiment: Inhibition of human carbonic anhydrase-5A preincubated for 15 mins by stopped-flow CO2 hydration assay
pKi: −log10 of the molar value.

compound-structure | sign | pKi
COc1ccccc1CCNS(N)(=O)=O | = | 5.48
COc1cc(CCNS(N)(=O)=O)cc(OC)c1OC | < | 4.30
COc1ccc(CCNS(N)(=O)=O)cc1 | = | 5.49
COc1cccc(CCNS(N)(=O)=O)c1OC | < | 4.30

----------
The following compounds each carry a recorded Ki for Carbonic anhydrase 9 (Homo sapiens, UniProt Q16790).

compound-structure | sign | Ki (µM)
COc1ccc(CCNS(N)(=O)=O)cc1OC | = | 0.092
COc1cccc(CCNS(N)(=O)=O)c1OC | > | 50
COc1cc(CCNS(N)(=O)=O)cc(OC)c1OC | = | 0.221
